target: PLK4 (Homo sapiens)
Construct: purchased DiscoverX (KINOMEscan)
Sequence (O00444 whole entry): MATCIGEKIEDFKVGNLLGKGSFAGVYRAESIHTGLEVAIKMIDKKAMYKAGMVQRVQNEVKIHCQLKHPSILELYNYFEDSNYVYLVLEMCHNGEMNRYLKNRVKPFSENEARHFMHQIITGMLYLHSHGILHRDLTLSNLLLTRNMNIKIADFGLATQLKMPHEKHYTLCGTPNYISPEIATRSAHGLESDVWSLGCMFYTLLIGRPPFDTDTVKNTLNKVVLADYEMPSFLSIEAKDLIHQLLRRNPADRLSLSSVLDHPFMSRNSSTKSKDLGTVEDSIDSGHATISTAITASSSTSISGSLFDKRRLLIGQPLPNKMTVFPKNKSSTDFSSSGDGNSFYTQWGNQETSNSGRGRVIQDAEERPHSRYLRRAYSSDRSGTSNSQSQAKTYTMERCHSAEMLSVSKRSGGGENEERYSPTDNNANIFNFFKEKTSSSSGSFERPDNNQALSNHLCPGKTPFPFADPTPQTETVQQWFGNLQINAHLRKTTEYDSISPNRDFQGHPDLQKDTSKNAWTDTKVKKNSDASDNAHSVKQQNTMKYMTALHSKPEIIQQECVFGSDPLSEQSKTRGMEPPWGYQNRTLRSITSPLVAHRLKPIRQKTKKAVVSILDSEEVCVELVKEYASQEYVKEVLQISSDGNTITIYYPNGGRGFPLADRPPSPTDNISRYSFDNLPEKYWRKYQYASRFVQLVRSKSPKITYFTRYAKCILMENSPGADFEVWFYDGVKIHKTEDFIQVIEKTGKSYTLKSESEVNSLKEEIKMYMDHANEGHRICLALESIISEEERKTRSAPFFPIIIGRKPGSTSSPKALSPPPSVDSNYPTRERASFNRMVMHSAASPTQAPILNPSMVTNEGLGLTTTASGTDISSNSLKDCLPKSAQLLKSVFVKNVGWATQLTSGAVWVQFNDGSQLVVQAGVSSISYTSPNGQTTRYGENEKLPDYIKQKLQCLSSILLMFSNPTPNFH
test.name: KINOMEscan competitive binding
test.parameters: n=1, read-out: Percent inhibition, PLK4
result.type: inhibition at 10 µM

{"columns": ["compound", "value.reported"],
 "data": [
  ["Clc1ccc(Nc2ncc(-c3ccccc3)s2)cc1", "0%"],
  ["Cc1ccc(O)cc1Nc1ccnc(Nc2cccc(C(N)=O)c2)n1", "95.2%"],
  ["COc1cc(Nc2nccc(-c3sc(N)nc3-c3cccc(NC(=O)c4c(F)cccc4F)c3)n2)cc(OC)c1OC", "99.8%"],
  ["CN1CCN(c2ccc(Nc3nccc(-c4cnn5ncccc45)n3)cc2C#N)CC1", "99.7%"],
  ["COc1ccc(Nc2nccc(-c3cnn4ncccc34)n2)cc1", "99%"]
]}

---

target: panel of 203 kinases (Homo sapiens)
Construct: purchased DiscoverX (KINOMEscan)
Sequence (P53667 whole entry): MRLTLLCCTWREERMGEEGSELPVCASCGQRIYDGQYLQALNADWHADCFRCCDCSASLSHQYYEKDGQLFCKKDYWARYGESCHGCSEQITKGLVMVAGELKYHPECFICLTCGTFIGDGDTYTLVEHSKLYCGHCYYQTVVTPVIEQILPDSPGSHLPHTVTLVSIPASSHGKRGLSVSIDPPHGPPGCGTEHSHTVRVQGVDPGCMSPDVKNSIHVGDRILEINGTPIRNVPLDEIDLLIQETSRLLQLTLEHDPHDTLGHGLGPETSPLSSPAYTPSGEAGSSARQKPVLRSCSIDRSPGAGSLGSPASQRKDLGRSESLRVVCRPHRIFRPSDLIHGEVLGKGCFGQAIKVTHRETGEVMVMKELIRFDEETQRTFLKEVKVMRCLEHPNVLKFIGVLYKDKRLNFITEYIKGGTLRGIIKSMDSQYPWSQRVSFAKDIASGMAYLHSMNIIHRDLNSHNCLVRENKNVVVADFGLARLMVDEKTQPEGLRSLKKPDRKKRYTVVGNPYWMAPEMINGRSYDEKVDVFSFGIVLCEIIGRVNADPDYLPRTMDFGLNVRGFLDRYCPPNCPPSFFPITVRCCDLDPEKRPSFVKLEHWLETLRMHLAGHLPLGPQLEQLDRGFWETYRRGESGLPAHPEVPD
test.name: KINOMEscan competitive binding, whole panel
test.parameters: 10 µM, n=1; kinase LIMK1; read-out: Percent inhibition LIMK1
Below is a list of entries, each paired with its recorded inhibition at 10 µM value.

{"columns": ["compound", "readout.unit", "inhibition at 10 µM"],
 "data": [
  ["Cc1ccc(O)cc1Nc1ccnc(Nc2cccc(C(N)=O)c2)n1", "%", 86.4],
  ["CN1CCN(c2ccc(Nc3nccc(-c4cnn5ncccc45)n3)cc2C#N)CC1", "%", 85.9],
  ["Fc1cccc(COc2ccc(Nc3ncnc4c3CN(CCN3CCOCC3)CC4)cc2Cl)c1", "%", 0],
  ["c1ccc(COc2cccc(-c3ccnc4[nH]ccc34)c2)cc1", "%", 0],
  ["Cc1ccc(O)cc1N(C)c1ccnc(Nc2cccc(S(N)(=O)=O)c2)n1", "%", 91.9],
  ["COc1ccc(Nc2nccc(-c3cnn4ncccc34)n2)cc1", "%", 90.5],
  ["C[C@@H](Oc1cc(-c2cnc3ccccn23)sc1C(N)=O)c1ccccc1Cl", "%", 0],
  ["COc1cc(Nc2nccc(-c3sc(N)nc3-c3cccc(NC(=O)c4c(F)cccc4F)c3)n2)cc(OC)c1OC", "%", 100],
  ["Clc1ccc(Nc2ncc(-c3ccccc3)s2)cc1", "%", 0],
  ["Nc1ncc2c(-c3ccncc3)c[nH]c2n1", "%", 0]
]}

---

target: PHKG2 (Homo sapiens, UniProt P15735)
Construct: purchased DiscoverX (KINOMEscan)
Sequence (P15735 1-406): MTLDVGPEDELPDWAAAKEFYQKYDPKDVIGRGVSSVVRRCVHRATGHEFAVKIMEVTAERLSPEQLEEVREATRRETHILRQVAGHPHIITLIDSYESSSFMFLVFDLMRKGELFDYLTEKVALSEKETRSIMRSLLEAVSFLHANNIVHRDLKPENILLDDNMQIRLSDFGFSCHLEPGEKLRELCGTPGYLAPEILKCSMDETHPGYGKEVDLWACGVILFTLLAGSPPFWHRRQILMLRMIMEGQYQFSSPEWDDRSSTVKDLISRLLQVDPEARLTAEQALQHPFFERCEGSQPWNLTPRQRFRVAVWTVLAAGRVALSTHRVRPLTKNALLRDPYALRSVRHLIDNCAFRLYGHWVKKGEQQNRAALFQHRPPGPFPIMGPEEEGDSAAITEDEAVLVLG
test.name: KINOMEscan competitive binding
test.parameters: n=1, read-out: Percent inhibition, PHKG2
result.type: inhibition at 10 µM (%)

{"columns": ["compound", "target", "result.type", "readout.unit", "value.reported"],
 "data": [
  ["COc1ccc(Nc2nccc(-c3cnn4ncccc34)n2)cc1 [Compound 2]", "PHKG2 (Homo sapiens, UniProt P15735)", "inhibition at 10 µM", "%", 97.1],
  ["Clc1ccc(Nc2ncc(-c3ccccc3)s2)cc1 [Compound 10]", "PHKG2 (Homo sapiens, UniProt P15735)", "inhibition at 10 µM", "%", 0],
  ["C[C@@H](Oc1cc(-c2cnc3ccccn23)sc1C(N)=O)c1ccccc1Cl [Compound 8]", "PHKG2 (Homo sapiens, UniProt P15735)", "inhibition at 10 µM", "%", 74.6],
  ["Cc1ccc(O)cc1N(C)c1ccnc(Nc2cccc(S(N)(=O)=O)c2)n1 [Compound 4]", "PHKG2 (Homo sapiens, UniProt P15735)", "inhibition at 10 µM", "%", 0],
  ["Nc1ncc2c(-c3ccncc3)c[nH]c2n1 [Compound 11]", "PHKG2 (Homo sapiens, UniProt P15735)", "inhibition at 10 µM", "%", 0],
  ["Fc1cccc(COc2ccc(Nc3ncnc4c3CN(CCN3CCOCC3)CC4)cc2Cl)c1 [Compound 6]", "PHKG2 (Homo sapiens, UniProt P15735)", "inhibition at 10 µM", "%", 0],
  ["Cc1ccc(O)cc1Nc1ccnc(Nc2cccc(C(N)=O)c2)n1 [Compound 3]", "PHKG2 (Homo sapiens, UniProt P15735)", "inhibition at 10 µM", "%", 0],
  ["CN1CCN(c2ccc(Nc3nccc(-c4cnn5ncccc45)n3)cc2C#N)CC1 [Compound 1]", "PHKG2 (Homo sapiens, UniProt P15735)", "inhibition at 10 µM", "%", 100],
  ["c1ccc(COc2cccc(-c3ccnc4[nH]ccc34)c2)cc1 [Compound 9]", "PHKG2 (Homo sapiens, UniProt P15735)", "inhibition at 10 µM", "%", 0],
  ["COc1cc(Nc2nccc(-c3sc(N)nc3-c3cccc(NC(=O)c4c(F)cccc4F)c3)n2)cc(OC)c1OC [Compound 7]", "PHKG2 (Homo sapiens, UniProt P15735)", "inhibition at 10 µM", "%", 0]
]}
